# System: RPMI-8226 leukemia
# Protocol Summary: NCI tumour cell line growth inhibition, 48 h; in the data active means GI50 below about 0.43 µM; inactive means the rest
// classify into True = active, False = inactive

Some solved cases for reference:
molecule=COc1ccc(-c2csc(Nc3cccc(-c4csc(C)n4)c3)n2)cc1 experimental_system="RPMI-8226 leukemia" class=False
molecule=NC(=O)/C(=C/n1cnc(-c2cc(C(F)(F)F)cc(C(F)(F)F)c2)n1)c1cncnc1 experimental_system="RPMI-8226 leukemia" class=True
molecule=N#[N+]c1ccc(Nc2ccccc2)cc1 experimental_system="RPMI-8226 leukemia" class=False
molecule="COc1cc2c3cc1Oc1c(OC)c(OC)cc4c1C(Cc1ccc(O)c(c1)Oc1ccc(cc1)CC3N(C)CC2)N(C)CC4 (stereo not drawn)" experimental_system="RPMI-8226 leukemia" class=False
molecule="CN(C)c1ccc(C(O)C2=CC(=O)c3ccccc3C2=O)cc1 (stereo not drawn)" experimental_system="RPMI-8226 leukemia" class=False
molecule="COc1cc(NC2CCCCC2O)c2nc(-c3ccc(Cl)cc3)ccc2c1 (stereo not drawn)" experimental_system="RPMI-8226 leukemia" class=False
molecule=CC(C)OP(=O)(O)c1ncc(-c2ccc(C(F)(F)F)cc2)c(NC2CCCCCC2)n1 experimental_system="RPMI-8226 leukemia" class=False
molecule=C=CC(=O)Nc1cc2c(Nc3ccc(F)c(Cl)c3)ncnc2cc1C#CC(C)(C)N1CCN(C)CC1 experimental_system="RPMI-8226 leukemia" class=False
molecule=CCOc1ccc2cc(-c3nn(CC4CCNCC4)c4ncnc(N)c34)ccc2c1 experimental_system="RPMI-8226 leukemia" class=False
molecule=Nc1nccc2c([N+](=O)[O-])cccc12 experimental_system="RPMI-8226 leukemia" class=False

Task item: What outcome does the record of this test show for "COc1ccc(-c2c(N)noc2-c2cc(OC)c3c(c2)OCCO3)cc1" ?
Reply: True

Task item: How did this test come out for "C=C1C[C@@H]2O[C@H]3[C@H]4[C@@H](CC[C@@](C)(OC(=O)CCC)[C@H]42)[C@@H](C)C(=O)O[C@@]3(C)CC[C@H]1OO" ?
Reply: False

Task item: Hi, do you know how COc1ccc(C2NC(=S)NC3=C2CCOc2c3ccc3ccccc23)cc1 (stereo not drawn) came out in this test?
Reply: False

Task item: What call does the record list for CCOC1Oc2ccc(C)cc2C(=O)/C1=C\Nc1ccc(S(N)(=O)=O)cc1 (stereo not drawn) ?
Reply: False

---

Hi there, I'd appreciate the recorded TGI for every entry that follows.
# System: LXFL 529 NSCLC
# Protocol Summary: NCI tumour cell line growth inhibition, 48 h
Give bare numbers, in µM.

Field: example entries. Status: answers known.
compound="CCOC(=O)CCC(NC(=O)c1ccc(NC(OC)c2nc3cc(C(F)(F)F)ccc3nc2-c2ccccc2)cc1)C(=O)OCC (configuration not stated)" measured_endpoint=TGI unit=µM endpoint_result=20.3
compound="CCOC(=O)C1=C(OC(OCC)C(CC)[Se]c2ccccc2)CCC1 (configuration not stated)" measured_endpoint=TGI unit=µM endpoint_result=77

--- query ---
Task item: Please state recorded TGI (tested on LXFL 529 NSCLC) of O=C1C(=O)C2(CC1S(=O)(=O)c1ccccc1)c1ccccc1-c1ccccc12 (configuration not stated)
Reply: 31

---

# Tested on: UACC-62 melanoma
# Protocol Summary: NCI tumour cell line growth inhibition, 48 h
Measured Endpoint: TGI

Sample answers from the record:
compound="CC(Oc1ccccc1Cl)C(=O)NN1C(=O)CC(=O)N(c2ccc(Cl)cc2)C1=S (stereo unspecified)" endpoint_result="> 100 µM"
compound=COc1ccccc1NC(=O)C1=C(C)NC(C)=C(C(=O)Nc2ccccc2OC)C1c1ccco1 endpoint_result="22.9 µM"
compound=N#[N+]c1ccc(Nc2ccccc2)cc1 endpoint_result="> 50 mg/L"
compound=CC(C)(O)c1cc2c(cc1C(C)(C)O)-c1ccccc1-2 endpoint_result="> 100 µM"
compound=C=CC(=O)Nc1cc2c(Nc3ccc(F)c(Cl)c3)ncnc2cc1C#CC(C)(C)N1CCN(C)CC1 endpoint_result="5.58 µM"
compound=O=[N+]([O-])/C=C/c1ccc(Cl)cc1[N+](=O)[O-] endpoint_result="3.64 µM"

Dear colleague, could you send me TGI for each of the items below? Thanks.
1. Cc1cc(C)nc(NS(=O)(=O)c2ccc(Nc3c4ccccc4nc4c(C(=O)NCCN(C)C)cccc34)cc2)n1
2. Cc1nc2ccccc2c(=O)n1/N=C(\N=Nc1cc(Cl)ccc1Cl)c1ccccc1
3. O=[N+]([O-])/C(Cl)=C(/C(Cl)=C(Cl)Cl)N1CCOCC1
4. Cc1sc2nc3n(c(=O)c2c1C)N=CN(c1ccc(Cl)cc1)C3
5. O=c1oc2c3ccc4ccccc4c3n(CCN3CCCCC3)c2c2ccccc12

Reply:
1. 14.6 µM
2. > 100 µM
3. 5.62 µM
4. > 100 µM
5. > 78.8 µM
